molecular target: Delta-type opioid receptor (Rattus norvegicus); experiment: Binding affinity towards delta opioid receptor was determined in rat brain using [H]-[p-Cl-Phe4]-DPDPE as radioligand; format: tissue-based
Sequence (P33533 whole entry): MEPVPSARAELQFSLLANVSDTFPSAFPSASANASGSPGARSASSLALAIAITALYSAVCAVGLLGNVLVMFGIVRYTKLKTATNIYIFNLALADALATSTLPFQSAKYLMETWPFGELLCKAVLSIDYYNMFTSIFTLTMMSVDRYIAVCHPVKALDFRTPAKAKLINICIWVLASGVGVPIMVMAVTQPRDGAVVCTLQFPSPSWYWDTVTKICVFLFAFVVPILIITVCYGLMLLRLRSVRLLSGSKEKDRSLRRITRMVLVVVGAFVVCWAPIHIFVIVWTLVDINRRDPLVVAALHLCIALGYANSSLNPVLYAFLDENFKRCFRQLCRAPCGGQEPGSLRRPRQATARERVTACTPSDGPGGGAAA
Where a SMILES comes first, the peptide text is derived from it. Bridges are numbered along the chain shown (N, C = ends). [ ]: non-standard residue; d: D form. dPen = CC(C)(S)[C@@H](N)C(=O)O
// NB: equality with 0.7 nM counts as -1; only IC50 strictly below is 1

CC1(C)SSC[C@@H](C(=O)N[C@@H](Cc2ccccc2)C(=O)O)NC(=O)[C@H](Cc2ccc(Br)cc2)NC(=O)CNC(=O)[C@@H]1NC(=O)[C@@H](N)Cc1ccc(O)cc1
-1

Bench note: check whether CC1(C)SSC[C@@H](C(=O)N[C@@H](Cc2ccccc2)C(=O)O)NC(=O)[C@H](Cc2ccc(I)cc2)NC(=O)CNC(=O)[C@@H]1NC(=O)[C@@H](N)Cc1ccc(O)cc1 shows IC50 below 0.7 nM
-1

Bench note: check whether CC1(C)SSC[C@@H](C(=O)N[C@@H](Cc2ccccc2)C(=O)O)NC(=O)[C@H](Cc2ccc(Cl)cc2)NC(=O)CNC(=O)[C@@H]1NC(=O)[C@@H](N)Cc1ccc(O)cc1 shows IC50 below 0.7 nM
1

Bench note: check whether CC1(C)SSC[C@@H](C(=O)N[C@@H](Cc2ccccc2)C(=O)O)NC(=O)[C@H](Cc2ccccc2)NC(=O)CNC(=O)[C@@H]1NC(=O)[C@@H](N)Cc1ccc(O)cc1 (H-Y[dPen]GFCF-OH; disulfide 2-5) shows IC50 below 0.7 nM
-1

* * *

biological target: Delta-type opioid receptor (Mus musculus, UniProt P32300); assay: Inhibitory concentration against delta opioid receptor of electrically induced smooth muscle contraction of mouse vas deferens
Sequence (P32300 whole entry): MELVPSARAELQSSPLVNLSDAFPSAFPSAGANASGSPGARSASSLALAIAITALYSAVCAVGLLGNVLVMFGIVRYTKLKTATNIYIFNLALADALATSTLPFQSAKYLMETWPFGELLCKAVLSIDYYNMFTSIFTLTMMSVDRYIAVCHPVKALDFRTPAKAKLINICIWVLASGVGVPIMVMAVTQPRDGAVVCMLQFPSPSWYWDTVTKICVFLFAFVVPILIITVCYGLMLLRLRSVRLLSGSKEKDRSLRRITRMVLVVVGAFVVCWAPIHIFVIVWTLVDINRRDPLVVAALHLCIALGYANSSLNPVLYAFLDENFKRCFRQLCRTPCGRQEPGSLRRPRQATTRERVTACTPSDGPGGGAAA
Where a SMILES comes first, the peptide text is derived from it. Bridges are numbered along the chain shown (N, C = ends). [ ]: non-standard residue; d: D form. dPen = CC(C)(S)[C@@H](N)C(=O)O
Would you mind telling me the reported IC50 of each entry?
Answers are plain numbers, in nM.

Illustrative cases are given below, each with its answer.
CC1(C)SSC[C@@H](C(=O)N[C@@H](Cc2ccccc2)C(=O)O)NC(=O)[C@H](Cc2ccc(F)cc2)NC(=O)CNC(=O)[C@@H]1NC(=O)[C@@H](N)Cc1ccc(O)cc1
0.028
CC1(C)SSC[C@@H](C(=O)N[C@@H](Cc2ccccc2)C(=O)O)NC(=O)[C@H](Cc2ccccc2)NC(=O)CNC(=O)[C@@H]1NC(=O)[C@@H](N)Cc1ccc(O)cc1 (H-Y[dPen]GFCF-OH; disulfide 2-5)
0.016
CC1(C)SSC[C@@H](C(=O)N[C@@H](Cc2ccccc2)C(=O)O)NC(=O)[C@H](Cc2ccc(I)cc2)NC(=O)CNC(=O)[C@@H]1NC(=O)[C@@H](N)Cc1ccc(O)cc1
0.3
CC1(C)SSC[C@@H](C(=O)N[C@@H](Cc2ccccc2)C(=O)O)NC(=O)[C@H](Cc2ccc(Br)cc2)NC(=O)CNC(=O)[C@@H]1NC(=O)[C@@H](N)Cc1ccc(O)cc1
0.028

Let's switch to this compound now.
Record summary for CC1(C)SSC[C@@H](C(=O)N[C@@H](Cc2ccccc2)C(=O)O)NC(=O)[C@H](Cc2ccc(Cl)cc2)NC(=O)CNC(=O)[C@@H]1NC(=O)[C@@H](N)Cc1ccc(O)cc1 : reported IC50 = 0.076

* * *

test system: Opioid receptors; mu & delta; assay: Selectivity ratio (mu/delta) of the compound; format: protein assay
Where a SMILES comes first, the peptide text is derived from it. Bridges are numbered along the chain shown (N, C = ends). [ ]: non-standard residue; d: D form. dPen = CC(C)(S)[C@@H](N)C(=O)O
REPORTED METRIC: Selectivity
Give bare numbers.

Illustrative cases are given below, each with its answer.
CC1(C)SSC[C@@H](C(=O)N[C@@H](Cc2ccccc2)C(=O)O)NC(=O)[C@H](Cc2ccc(I)cc2)NC(=O)CNC(=O)[C@@H]1NC(=O)[C@@H](N)Cc1ccc(O)cc1
1300
CC1(C)SSC[C@@H](C(=O)N[C@@H](Cc2ccccc2)C(=O)O)NC(=O)[C@H](Cc2ccc(Br)cc2)NC(=O)CNC(=O)[C@@H]1NC(=O)[C@@H](N)Cc1ccc(O)cc1
530
CC1(C)SSC[C@@H](C(=O)N[C@@H](Cc2ccccc2)C(=O)O)NC(=O)[C@H](Cc2ccccc2)NC(=O)CNC(=O)[C@@H]1NC(=O)[C@@H](N)Cc1ccc(O)cc1 (H-Y[dPen]GFCF-OH; disulfide 2-5)
200
CC1(C)SSC[C@@H](C(=O)N[C@@H](Cc2ccccc2)C(=O)O)NC(=O)[C@H](Cc2ccc(F)cc2)NC(=O)CNC(=O)[C@@H]1NC(=O)[C@@H](N)Cc1ccc(O)cc1
160

Record summary for CC1(C)SSC[C@@H](C(=O)N[C@@H](Cc2ccccc2)C(=O)O)NC(=O)[C@H](Cc2ccc(Cl)cc2)NC(=O)CNC(=O)[C@@H]1NC(=O)[C@@H](N)Cc1ccc(O)cc1 : reported Selectivity = 160

* * *

biological target: Mu-type opioid receptor (Cavia porcellus); assay: Inhibitory concentration against electrically evoked contractions of guinea pig ileum longitudinal muscle-myenteric plexus
Where a SMILES comes first, the peptide text is derived from it. Bridges are numbered along the chain shown (N, C = ends). [ ]: non-standard residue; d: D form. dPen = CC(C)(S)[C@@H](N)C(=O)O
REPORTED METRIC: pIC50
Answers are plain numbers, as −log10 of the molar value.

Illustrative cases are given below, each with its answer.
CC1(C)SSC[C@@H](C(=O)N[C@@H](Cc2ccccc2)C(=O)O)NC(=O)[C@H](Cc2ccc(I)cc2)NC(=O)CNC(=O)[C@@H]1NC(=O)[C@@H](N)Cc1ccc(O)cc1
6.19
CC1(C)SSC[C@@H](C(=O)N[C@@H](Cc2ccccc2)C(=O)O)NC(=O)[C@H](Cc2ccc(Br)cc2)NC(=O)CNC(=O)[C@@H]1NC(=O)[C@@H](N)Cc1ccc(O)cc1
6.92

Let's switch to this compound now.
Record summary for CC1(C)SSC[C@@H](C(=O)N[C@@H](Cc2ccccc2)C(=O)O)NC(=O)[C@H](Cc2ccccc2)NC(=O)CNC(=O)[C@@H]1NC(=O)[C@@H](N)Cc1ccc(O)cc1 (H-Y[dPen]GFCF-OH; disulfide 2-5) : reported pIC50 = 7.08

* * *

Where a SMILES comes first, the peptide text is derived from it. Bridges are numbered along the chain shown (N, C = ends). [ ]: non-standard residue; d: D form. dPen = CC(C)(S)[C@@H](N)C(=O)O
Assay read-out log10(IC50); system under study: Mu-type opioid receptor (Rattus norvegicus, UniProt P33535).
Sequence (P33535 whole entry): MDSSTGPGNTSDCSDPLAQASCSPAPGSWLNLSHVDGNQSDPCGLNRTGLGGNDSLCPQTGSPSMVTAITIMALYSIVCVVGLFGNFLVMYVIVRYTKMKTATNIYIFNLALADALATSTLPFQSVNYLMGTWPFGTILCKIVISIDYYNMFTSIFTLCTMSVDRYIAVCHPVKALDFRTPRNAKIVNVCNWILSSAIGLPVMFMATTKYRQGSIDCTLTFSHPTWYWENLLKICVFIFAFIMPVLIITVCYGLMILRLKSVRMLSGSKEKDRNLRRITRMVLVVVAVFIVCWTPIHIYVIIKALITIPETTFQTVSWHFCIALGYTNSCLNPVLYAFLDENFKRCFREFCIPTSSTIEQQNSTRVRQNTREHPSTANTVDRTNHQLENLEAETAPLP
Recall that a logarithmic scale is used here: each number is log10 of IC50 in µM.

Could I get log10(IC50) for every one of these entries?
1. CC1(C)SSC[C@@H](C(=O)N[C@@H](Cc2ccccc2)C(=O)O)NC(=O)[C@H](Cc2ccc(F)cc2)NC(=O)CNC(=O)[C@@H]1NC(=O)[C@@H](N)Cc1ccc(O)cc1
2. CC1(C)SSC[C@@H](C(=O)N[C@@H](Cc2ccccc2)C(=O)O)NC(=O)[C@H](Cc2ccc(Cl)cc2)NC(=O)CNC(=O)[C@@H]1NC(=O)[C@@H](N)Cc1ccc(O)cc1
3. CC1(C)SSC[C@@H](C(=O)N[C@@H](Cc2ccccc2)C(=O)O)NC(=O)[C@H](Cc2ccc(I)cc2)NC(=O)CNC(=O)[C@@H]1NC(=O)[C@@H](N)Cc1ccc(O)cc1
4. CC1(C)SSC[C@@H](C(=O)N[C@@H](Cc2ccccc2)C(=O)O)NC(=O)[C@H](Cc2ccccc2)NC(=O)CNC(=O)[C@@H]1NC(=O)[C@@H](N)Cc1ccc(O)cc1 (H-Y[dPen]GFCF-OH; disulfide 2-5)
5. CC1(C)SSC[C@@H](C(=O)N[C@@H](Cc2ccccc2)C(=O)O)NC(=O)[C@H](Cc2ccc(Br)cc2)NC(=O)CNC(=O)[C@@H]1NC(=O)[C@@H](N)Cc1ccc(O)cc1

[-0.96, -1.08, 0.20, -0.55, -0.28]

* * *

Would you mind telling me the reported IC50 of each entry?
target: Mu-type opioid receptor (Cavia porcellus, UniProt P97266); experiment: Inhibitory concentration against electrically evoked contractions of guinea pig ileum longitudinal muscle-myenteric plexus
Sequence (P97266 whole entry): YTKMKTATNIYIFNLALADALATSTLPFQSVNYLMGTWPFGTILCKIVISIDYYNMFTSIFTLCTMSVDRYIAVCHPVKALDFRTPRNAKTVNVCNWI
One number for each entry, in nM.

CC1(C)SSC[C@@H](C(=O)N[C@@H](Cc2ccccc2)C(=O)O)NC(=O)[C@H](Cc2ccc(F)cc2)NC(=O)CNC(=O)[C@@H]1NC(=O)[C@@H](N)Cc1ccc(O)cc1
32

Let's switch to this compound now.
Record summary for CC1(C)SSC[C@@H](C(=O)N[C@@H](Cc2ccccc2)C(=O)O)NC(=O)[C@H](Cc2ccc(Cl)cc2)NC(=O)CNC(=O)[C@@H]1NC(=O)[C@@H](N)Cc1ccc(O)cc1 : reported IC50 = 36
